- Study system: T1, Cyclophilin 40 (human; pDEST14-6H-TEV-hCyp40) (human, UniProt Q08752 1-370)
- T1 construct: Cyclophilin 40 (Cyp40, PPID), human; construct pDEST14-6H-TEV-hCyp40; Monomeric by dynamic light scattering; also called PPID; source: E. coli BL21 star (DE3), purified (IMAC, gel filtration on Superdex 200)
- T1 sequence (Q08752 whole entry): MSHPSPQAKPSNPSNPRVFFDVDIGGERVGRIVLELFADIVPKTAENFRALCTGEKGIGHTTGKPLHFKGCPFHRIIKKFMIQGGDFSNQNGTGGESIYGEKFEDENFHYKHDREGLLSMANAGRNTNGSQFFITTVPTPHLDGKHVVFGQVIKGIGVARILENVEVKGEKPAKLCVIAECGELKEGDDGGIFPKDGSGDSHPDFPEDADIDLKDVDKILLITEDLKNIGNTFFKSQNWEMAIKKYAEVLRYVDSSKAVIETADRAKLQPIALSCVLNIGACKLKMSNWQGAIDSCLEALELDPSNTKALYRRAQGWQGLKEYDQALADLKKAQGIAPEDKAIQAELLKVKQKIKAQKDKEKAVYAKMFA
- Assay notes: ITC; 500 uM SRMEEVD titrated into 7.7 uM Cyp40 in 15 x 2.5 ul aliquots; 50 mM Hepes pH 8, 100 mM sodium chloride, 1 mM DTT; 1:1 binding model; 20 °C (value told with Supplementary Figure S2)
- Particulars: both partners purified
Reported endpoint: Kd (µM)
Respond with the bare value in µM.

Q) So what's the measured Kd for this one? SRMEEVD (also called Hsp90 peptide; Hsp90 wt) [SRMEEVD peptide (Hsp90 wild-type C-terminal peptide)]
A) 10.7

Where do these numbers come from? They come from paper PMC4721547.
